- protocol: Tanguay_ZF_120hpf_MORT_legacy: (Legacy) Oregon State University Tanguay Lab 120 Hour Post-fertilization zebrafish Assay for Mortality (AID 2283633)
Calls of active or inactive are those of the source. Rule for the calls: active = hit-call score of the fitted dose curve at least 0.9, where 1 is the maximum; inconclusive = response in the unintended direction; inactive = score below 0.9.
Outcomes: YES = active, NO = inactive

INSERT INTO results (compound, answerlabel) VALUES
  ('O=C1CCCCCN1', 'NO'),
  ('CCCCCCCCCCCCCCCO', 'NO'),
  ('CCC(C)(C)C(=O)O[C@H]1C[C@@H](C)C=C2C=C[C@H](C)[C@H](CC[C@@H]3C[C@@H](O)CC(=O)O3)[C@H]21', 'YES'),
  ('CC1(C)C(=O)N(Br)C(=O)N1Br', 'NO'),
  ('O=C(NS(=O)(=O)/C=C/c1ccccc1)c1ccc(F)cc1Cl', 'NO'),
  ('CCOC(=O)COc1ccc2c(c1)CC(NCC(O)c1cccc(Cl)c1)CC2 (stereo not given)', 'YES'),
  ('C1N2CN3CN1CN(C2)C3', 'NO'),
  ('CCOc1cccc(-n2cc(C(=O)N3CCN(c4cc(C(=O)O)c5ccccc5c4)CC3)nc2-c2ccc(C)cc2)c1', 'NO'),
  ('COc1cccc(-c2ccc(/C=C\CN3CCCCCC3)cc2Cl)c1', 'YES'),
  ('Cc1ccc(N)cc1O', 'NO');

----------
- protocol: LTEA_HepaRG_LDH_cytotoxicity: Cytotoxicity Assessment in the Life Technologies and Expression Analysis (LTEA) Assay (AID 2283563);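 for AC50: LDH activity released into spent culture medium as a marker of cell death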
Active and inactive are the calls of the source. How the source made its calls: active means hit-call score of the fitted dose curve at least 0.9, where 1 is the maximum; inconclusive means response in the unintended direction; inactive means score below 0.9.
observable: AC50

INSERT INTO results (molecule, endpointvalue) VALUES
  ('CCC(C)(C)C(=O)O[C@H]1C[C@@H](C)C=C2C=C[C@H](C)[C@H](CC[C@@H]3C[C@@H](O)CC(=O)O3)[C@H]21', 'inactive'),
  ('Cn1c(=O)c2c(ncn2C)n(C)c1=O', 'inactive'),
  ('CC(O)CN(CCN(CC(C)O)CC(C)O)CC(C)O (stereo unspecified)', 'inactive'),
  ('CCN(C(=O)c1cc(C)cc(OC[C@H](C)Nc2ccncc2)c1)C(C)C', '49.7 µM (active)'),
  ('CC(C)=CCCC(C)CCO (stereo unspecified)', 'inactive'),
  ('CC1(C)C(=O)N(Br)C(=O)N1Br', 'inactive');

----------
- targetSystem: human Retinoic Acid Receptor gamma (RARg), RARG (gene 5916) (UniProt P13631)
- Sequence (P13631 whole entry, looked up): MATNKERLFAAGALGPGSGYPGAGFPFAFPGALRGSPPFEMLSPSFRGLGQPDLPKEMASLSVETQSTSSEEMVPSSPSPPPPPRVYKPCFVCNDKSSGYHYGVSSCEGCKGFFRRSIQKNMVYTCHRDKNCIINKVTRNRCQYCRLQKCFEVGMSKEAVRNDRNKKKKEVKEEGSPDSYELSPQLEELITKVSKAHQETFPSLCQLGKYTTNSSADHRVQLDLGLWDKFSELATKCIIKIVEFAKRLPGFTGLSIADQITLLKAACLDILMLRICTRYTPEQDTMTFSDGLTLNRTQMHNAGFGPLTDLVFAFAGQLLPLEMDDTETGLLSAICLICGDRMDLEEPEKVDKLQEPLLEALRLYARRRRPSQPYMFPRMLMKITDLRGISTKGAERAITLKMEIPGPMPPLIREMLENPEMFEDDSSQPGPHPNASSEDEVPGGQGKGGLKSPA
- protocol: ATG_RARg_TRANS: Attagene TRANS-FACTORIAL HepG2 Assay for human Retinoic Acid Receptor gamma (RARg) (AID 2283009)
Results filed as inconclusive are left out. The source made the active and inactive calls. How the source made its calls: active means hit-call score of the fitted dose curve at least 0.9, where 1 is the maximum; inconclusive means response in the unintended direction; inactive means score below 0.9.
Outcomes: active, inactive

INSERT INTO results (molecule, answerlabel) VALUES
  ('CCN(C(=O)c1cc(C)cc(OC[C@H](C)Nc2ccncc2)c1)C(C)C', 'inactive'),
  ('COc1ccc(-n2nc(C(F)F)cc2-c2ccc(S(C)=O)cc2)cc1 (stereo unspecified)', 'inactive'),
  ('Cc1ccc(C)c(O)c1', 'inactive'),
  ('C=CCCCCCCCCC(=O)O', 'inactive'),
  ('CCNc1ccccc1', 'inactive'),
  ('O=c1[nH]c2ccc(S(=O)CCN3CCC(Cc4ccc(F)cc4)CC3)cc2o1 (stereo unspecified)', 'inactive'),
  ('Cc1c(-c2cccnc2)c2ccccc2n1CCCCC(=O)O', 'inactive'),
  ('Cn1cnc([N+](=O)[O-])c1Sc1ncnc2nc[nH]c12', 'active'),
  ('COCCOCCOCCOC', 'inactive'),
  ('O=C(O)CC(O)C(=O)O (stereo unspecified)', 'inactive'),
  ('COCCOc1cc2cc(C(=O)NC3CCN(C(C)C)CC3)n(CC(=O)Nc3ccc(Cl)cn3)c2cn1', 'inactive'),
  ('C1=CCCC=CCCC=CCC1', 'active'),
  ('O=C(O)c1cccc(N(Cc2cccnc2)c2ccc(OC(F)F)c(OC(F)F)c2)c1', 'inactive'),
  ('CC(C)CC(C)(O)C#CC(C)(O)CC(C)C (stereo unspecified)', 'inactive'),
  ('CC(C)(O)c1coc(S(=O)(=O)NC(=O)Nc2c3c(cc4c2CCC4)CCC3)c1', 'inactive'),
  ('O=C(OC[C@H]1O[C@@H](OC(=O)c2cc(O)c(O)c(OC(=O)c3cc(O)c(O)c(O)c3)c2)[C@H](OC(=O)c2cc(O)c(O)c(OC(=O)c3cc(O)c(O)c(O)c3)c2)[C@@H](OC(=O)c2cc(O)c(O)c(OC(=O)c3cc(O)c(O)c(O)c3)c2)[C@@H]1OC(=O)c1cc(O)c(O)c(OC(=O)c2cc(O)c(O)c(O)c2)c1)c1cc(O)c(O)c(OC(=O)c2cc(O)c(O)c(O)c2)c1', 'inactive');
